- EXPERIMENT DESCRIPTION: Cytotoxicity in TZM-bl cells by MTT assay
- Format: cell-based
- CONDITION PARAMETERS: human, MTT assay, 48 hours, mean ± SEM
Label true when CC50 at 48 h is strictly below 50 µM; otherwise label false.

Solved cases (9 shown):
INSERT INTO results (smiles_repr, label) VALUES
  ('COc1ccc(OC)c(-c2n[nH]cc2-c2c(C)c(OC)cc(C)c2O)c1', 'true'),
  ('COc1ccc(Br)cc1C(=O)c1coc2c1cc(OC)c1ccccc12', 'true'),
  ('COc1ccc(OC)c(-c2n[nH]cc2-c2c(O)cc(C)c(OC)c2C)c1', 'false'),
  ('COc1ccc(OC)c(-c2n[nH]cc2-c2cc(OC)c3ccccc3c2O)c1', 'true'),
  ('COc1ccc(OC)c(C(=O)c2coc3c(C)cc(OC)c(C)c23)c1', 'true'),
  ('COc1cc(F)ccc1C(=O)c1coc2ccc(O)cc12', 'true'),
  ('COc1cc(F)ccc1-c1n[nH]cc1-c1cc(O)ccc1O', 'true'),
  ('COc1ccc(-c2n[nH]cc2-c2cc(O)ccc2O)c(OC)c1OC', 'false'),
  ('COc1cc(F)ccc1-c1n[nH]cc1-c1cc(OC)c2ccccc2c1O', 'false');

Exercise: Quick check: CC50 at 48 h of COc1cc(F)ccc1C(=O)c1coc2c1cc(OC)c1ccccc12 under 50 µM?
Key: true

Hey, just so you know, these numbers are from paper PMC11883425.
